Tested Target: Gal(b1-3)GlcNAc(b1-2)Man(a1-3)[Gal(b1-3)GlcNAc(b1-2)Man(a1-6)]Man(b1-4)GlcNAc(b1-4)[Fuc(a1-6)]GlcNAc
Test Name: glycan array binding signal (z-score within array); higher = stronger binding
Test Settings: glycan notation: IUPAC condensed, linker removed
Shown is part of a subset that was picked to be rich in the strongest signals.
Property Label: glycan array binding signal (z-score)

Below: 2 binders and their reported glycan array binding signal (z-score).
Binder: RBMC1 (Vibrio cholerae) (protein) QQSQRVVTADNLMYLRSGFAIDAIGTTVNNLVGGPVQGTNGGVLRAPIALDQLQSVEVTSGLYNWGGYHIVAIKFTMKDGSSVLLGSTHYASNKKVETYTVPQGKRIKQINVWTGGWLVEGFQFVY
glycan array binding signal (z-score): 0.912
//
Binder: FimA-N2 (Actinomyces oris) (protein) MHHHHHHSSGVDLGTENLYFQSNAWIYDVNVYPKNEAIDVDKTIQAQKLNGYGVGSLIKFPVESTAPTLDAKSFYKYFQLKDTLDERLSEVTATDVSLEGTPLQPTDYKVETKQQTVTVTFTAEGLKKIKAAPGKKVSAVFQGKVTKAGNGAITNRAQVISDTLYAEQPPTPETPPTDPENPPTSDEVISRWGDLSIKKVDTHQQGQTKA
glycan array binding signal (z-score): 2.23

// next item, glycan array binding signal (z-score) requested
// glycan array binding signal (z-score) value for AidA (Burkholderia cenocepacia) (protein) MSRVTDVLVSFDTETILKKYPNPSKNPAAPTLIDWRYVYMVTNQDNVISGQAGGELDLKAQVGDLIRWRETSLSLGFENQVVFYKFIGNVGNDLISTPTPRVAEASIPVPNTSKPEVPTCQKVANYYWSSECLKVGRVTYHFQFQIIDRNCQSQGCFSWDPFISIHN : -0.149
